- measured.target: Histone deacetylase
- assay: Inhibition of HDAC in human HeLa cell nuclear extract using Boc-Lys (acetyl)-AMC as substrate preincubated for 5 mins followed by substrate addition measured after 30 mins by fluorescence assay
- Type: protein assay
assay.readout: IC50 (nM)
Write the value in nM as a bare number.

Record excerpt, results attached:
# smiles.str, readout.unit, recorded.value
measured = [
    ("O=C(/C=C/c1ccc(C(=O)NO)cc1)N[C@@H](Cc1c[nH]c2ccccc12)C(=O)NC1CC1", "nM", 268.9),
    ("O=C(/C=C/c1ccc(C(=O)NO)cc1)N[C@@H](Cc1c[nH]c2ccccc12)C(=O)Nc1ccc(Br)cc1", "nM", 2),
]

API: the following record is the query input.
# IC50 (compound: O=C(/C=C/c1ccc(C(=O)NO)cc1)N[C@@H](Cc1c[nH]c2ccccc12)C(=O)Nc1ccc(Cl)cc1 ) is 5.7

====

In this section we review reported IC50 values for a set of molecules.
- measured.target: Histone deacetylase
- assay: Inhibition of HDAC in human HeLa cell nuclear extract using Boc-Lys (acetyl)-AMC as substrate preincubated for 5 mins followed by substrate addition measured after 30 mins by fluorescence assay
- Type: protein assay
Hi! Could you send only the number? It should be in nM, unit omitted.

Worked examples, 5 molecules total:
# smiles.str, recorded.value
records = [
    ("O=C(/C=C/c1ccc(C(=O)NO)cc1)N[C@@H](Cc1c[nH]c2ccccc12)C(=O)Nc1cccc2ccccc12", 59.5),
    ("CC(C)(C)NC(=O)[C@H](Cc1c[nH]c2ccccc12)NC(=O)/C=C/c1ccc(C(=O)NO)cc1", 165.5),
    ("COc1ccc(NC(=O)[C@H](Cc2c[nH]c3ccccc23)NC(=O)/C=C/c2ccc(C(=O)NO)cc2)cc1", 35.8),
    ("O=C(/C=C/c1ccc(C(=O)NO)cc1)N[C@@H](Cc1c[nH]c2ccccc12)C(=O)NCCc1ccccc1", 21.8),
    ("O=C(/C=C/c1ccc(C(=O)NO)cc1)N[C@@H](Cc1c[nH]c2ccccc12)C(=O)NC1CCCC1", 249.1),
]

IC50 of CCNC(=O)[C@H](Cc1c[nH]c2ccccc12)NC(=O)/C=C/c1ccc(C(=O)NO)cc1 , assay on Histone deacetylase, is 112.1

Measured IC50 for this entry O=C(/C=C/c1ccc(C(=O)NO)cc1)N[C@@H](Cc1c[nH]c2ccccc12)C(=O)Nc1ccc(F)cc1 on Histone deacetylase: 2

The measured values listed here are drawn from ChEMBL document CHEMBL4219110.
